# protocolDescription: in vitro
# Assay type: in vitro ADME
# recordedConditions: human, Caco-2

[
  {
    "querySmiles": "CC(C)C(=O)OC[C@H]1O[C@@](C#N)(c2ccc3c(N)ncnn23)[C@H](O)[C@@H]1OC(=O)C(C)C",
    "Papp A→B at 90 min [×10⁻⁶ cm/s]": 3
  },
  {
    "querySmiles": "CC(=O)OC[C@H]1O[C@@](C#N)(c2ccc3c(N)ncnn23)[C@H](O)[C@@H]1O",
    "Papp A→B at 90 min [×10⁻⁶ cm/s]": 0.2
  },
  {
    "querySmiles": "CC(=O)Nc1ncnn2c([C@]3(C#N)O[C@H](COC(=O)[C@@H](N)C(C)(C)C)[C@@H](OC(=O)CC4CCCCC4)[C@H]3O)ccc12",
    "Papp A→B at 90 min [×10⁻⁶ cm/s]": 24
  },
  {
    "querySmiles": "CCCCC(=O)Nc1ncnn2c([C@]3(C#N)O[C@H](COC(=O)CC(C)C)[C@@H](O)[C@H]3O)ccc12",
    "Papp A→B at 90 min [×10⁻⁶ cm/s]": 3
  },
  {
    "querySmiles": "CCC(=O)OC[C@H]1O[C@@](C#N)(c2ccc3c(N)ncnn23)[C@H](O)[C@@H]1OCOC(=O)C(C)(C)C",
    "Papp A→B at 90 min [×10⁻⁶ cm/s]": 5.8
  },
  {
    "querySmiles": "CCC(=O)O[C@H]1[C@@H](O)[C@](C#N)(c2ccc3c(NC(=O)OCOC(=O)C(C)(C)C)ncnn23)O[C@@H]1COC(=O)[C@@H](N)C(C)C",
    "Papp A→B at 90 min [×10⁻⁶ cm/s]": 1.5
  }
]

* * *

# protocolDescription: in vitro
# Assay type: in vitro ADME
# recordedConditions: human, Caco-2
quantityName: Papp B→A at 90 min (×10⁻⁶ cm/s)

[
  {
    "querySmiles": "CC(C)C(=O)OC[C@H]1O[C@@](C#N)(c2ccc3c(N)ncnn23)[C@H](O)[C@@H]1OCOC(=O)C(C)(C)C",
    "quantityName": "Papp B→A at 90 min",
    "valueObserved": 7.1
  },
  {
    "querySmiles": "CCC(=O)OC[C@H]1O[C@@](C#N)(c2ccc3c(N)ncnn23)[C@H](O)[C@@H]1OC(=O)CC1CCCCC1",
    "quantityName": "Papp B→A at 90 min",
    "valueObserved": 0.36
  },
  {
    "querySmiles": "CC(C)C(=O)O[C@H]1[C@@H](O)[C@](C#N)(c2ccc3c(N)ncnn23)O[C@@H]1COC(=O)[C@@H](N)C(C)C",
    "quantityName": "Papp B→A at 90 min",
    "valueObserved": 3.3
  },
  {
    "querySmiles": "N#C[C@@]1(c2ccc3c(N)ncnn23)O[C@H](COC(=O)C2(c3ccccc3)CC2)[C@@H](O)[C@H]1O",
    "quantityName": "Papp B→A at 90 min",
    "valueObserved": 25
  }
]

* * *

# protocolDescription: in vitro
# Type: in vitro ADME
# recordedConditions: human, Caco-2

[
  {
    "querySmiles": "CCC(=O)OC[C@H]1O[C@@](C#N)(c2ccc3c(N)ncnn23)[C@H](O)[C@@H]1OC(=O)C(C)C",
    "efflux ratio at 90 min": 0.82
  },
  {
    "querySmiles": "CNc1nc(NC(=O)CC(C)C)nc2c1ncn2[C@@H]1O[C@H](COC(C)=O)[C@@H](OC(=O)CC(C)C)[C@@]1(C)F",
    "efflux ratio at 90 min": 0.22
  },
  {
    "querySmiles": "N#C[C@@]1(c2ccc3c(N)ncnn23)O[C@H](COC(=O)CC2CCC(F)(F)CC2)[C@@H](O)[C@H]1O",
    "efflux ratio at 90 min": 4.8
  },
  {
    "querySmiles": "N#C[C@@]1(c2ccc3c(N)ncnn23)O[C@H](COC(=O)CC2CCCCCC2)[C@@H](O)[C@H]1O",
    "efflux ratio at 90 min": 1.4
  },
  {
    "querySmiles": "CC1(CC(=O)OC[C@H]2O[C@@](C#N)(c3ccc4c(N)ncnn34)[C@H](O)[C@@H]2O)CCCCC1",
    "efflux ratio at 90 min": 0.85
  },
  {
    "querySmiles": "N#C[C@@]1(c2ccc3c(N)ncnn23)O[C@H](COC(=O)CC2CC2)[C@@H](O)[C@H]1O",
    "efflux ratio at 90 min": 3.5
  },
  {
    "querySmiles": "CC(C)CC(=O)OC[C@H]1O[C@@](C#N)(c2ccc3c(NC(=O)[C@@H](N)C(C)C)ncnn23)[C@H](O)[C@@H]1O",
    "efflux ratio at 90 min": 15
  }
]
